Overview of recorded mass density for various molecules
Details: 343.15 K; 101.33 kPa; Liquid; Vibrating tube method
Respond with the bare value in kg/m3.

Cc1cc(C)cc(C)c1: 818.5

Query: Give its mass density value. Item: c1ccccc1
Response: 824.7

Query: What value of measured mass density is listed for CCc1ccccc1 ?
Response: 822.1

Query: Dear colleague, I am looking for the recorded mass density of the following molecule: CC(=O)N1CCOCC1
Response: 1071.5

Query: Consider the molecule Cc1ccccc1 and give its measured mass density.
Response: 820.2

###

Conditions: 313.15 K; 101.33 kPa; Liquid; Vibrating tube method
Numbers after ± are expanded uncertainties.
METRIC: mass density
Show the value, then the unit it is measured in.

Examples with answers:
Cc1ccccc1: 848.8 ± 6 kg/m3
CCc1ccccc1: 849.3 ± 6 kg/m3
CC(=O)N1CCOCC1: 1097.3 ± 6.1 kg/m3
Cc1cc(C)cc(C)c1: 842.8 ± 6 kg/m3

Turning now to a further record.
Query: Query (molecule): c1ccccc1 ; field requested: mass density
Response: 857.4 ± 6 kg/m3

###

Details: 303.15 K; 101.33 kPa; Liquid; Vibrating tube method
I would appreciate it if you labelled entries T when mass density is 900 kg/m3 or higher, otherwise F.

CC(=O)N1CCOCC1: T
Cc1cc(C)cc(C)c1: F
CCc1ccccc1: F
c1ccccc1: F

Here is the next item to consider.
Query: // inclusive: mass density at least 900 kg/m3? input: Cc1ccccc1
Response: F

###

mass density: recorded values
Conditions: 333.15 K; 101.33 kPa; Liquid; Vibrating tube method
Lab book: enter the figure in kg/m3, no units written.

Worked set:
c1ccccc1 [benzene]: 835.7
CC(=O)N1CCOCC1 [4-acetylmorpholine]: 1080.1

Query: Value lookup for mass density; key = CCc1ccccc1 [ethylbenzene]
Response: 831.2

Query: Which mass density value belongs to Cc1cc(C)cc(C)c1 [1,3,5-trimethylbenzene] ?
Response: 826.6

Query: Report mass density for Cc1ccccc1 [toluene] please.
Response: 829.6

###

Recorded measurements of mass density, one per entry
Conditions: 323.15 K; 101.33 kPa; Liquid; Vibrating tube method
Report only the number, with the unit kg/m3 understood.

These recorded examples may help you get a feel for the data.
Cc1cc(C)cc(C)c1 [1,3,5-trimethylbenzene]: 834.7
CCc1ccccc1 [ethylbenzene]: 840.3

Query: Quick one: mass density of c1ccccc1 [benzene] ?
Response: 846.5

Query: Fill in: mass density of Cc1ccccc1 [toluene] is ___
Response: 838.9

Query: GET /values?readout=mass density&item= CC(=O)N1CCOCC1 [4-acetylmorpholine]
Response: 1088.7

###

Conditions: 293.15 K; 101.33 kPa; Liquid; Vibrating tube method
± gives the expanded uncertainty stated by the source.
METRIC: mass density
Show the value, then the unit it is measured in.

For orientation, consider the following solved cases.
CC(=O)N1CCOCC1: 1113.8 ± 6.1 kg/m3
Cc1ccccc1: 866.8 ± 6 kg/m3
Cc1cc(C)cc(C)c1: 865.1 ± 6 kg/m3
c1ccccc1: 878.9 ± 6 kg/m3

Now look at this one.
Query: Given the compound CCc1ccccc1 , what is its reported mass density?
Response: 867.2 ± 6 kg/m3
